Tested on: dengue virus type 1
method_summary: Antiviral activity against Dengue virus 1 DN8700828 infected in human HuH7 cells assessed as inhibition of viral RNA level measured 72 hrs post infection by qRT-PCR method
Format: functional, organism-based
conditions: DN8700828, Huh-7, 72 h
test_readout: EC50

Specify measured EC50 for CC(C)CC[C@@H](O)[C@](C)(O)[C@H]1CC[C@@]2(O)C3=CC(=O)[C@@H]4C[C@@H](O)[C@@H](O)C[C@]4(C)[C@H]3[C@H](O)C[C@]12C .
15.7 µM

----------
method_summary: Selectivity index, ratio of CC50 for human HuH7 cells to EC50 for Dengue virus 2 DN454009A infected in human HuH7 cells
Type: toxicity, cell-based, Huh-7
conditions: read-out: Ratio CC50/EC50
test_readout: selectivity ratio

Please review the following examples before continuing.
C[C@@]1(O)[C@H](O)[C@@H](CO)O[C@H]1n1ccc(N)nc1=O    > 8.5
CC(=O)OC(C)(C)CC[C@@H](O)[C@](C)(O)[C@H]1CC[C@@]2(O)C3=CC(=O)[C@@H]4C[C@@H](O)[C@@H](O)C[C@]4(C)[C@H]3[C@H](O)C[C@]12C    > 36.7

Specify measured selectivity ratio for CC(C)(O)CC[C@@H](O)[C@](C)(O)[C@H]1CC[C@@]2(O)C3=CC(=O)[C@@H]4C[C@@H](O)[C@@H](O)C[C@]4(C)[C@H]3CC[C@]12C [20-HYDROXYECDYSONE] .
> 13.1

----------
method_summary: Selectivity index, ratio of CC50 for human HuH7 cells to EC50 for Dengue virus 2 DN454009A infected in human HuH7 cells
Type: toxicity, cell-based, Huh-7
conditions: read-out: Ratio CC50/EC50
test_readout: selectivity ratio

Provide reported selectivity ratio for each item, in the same order as listed.
1. CC(C)(O)CC[C@@H](O)[C@](C)(O)[C@H]1CC[C@@]2(O)C3=CC(=O)[C@@H]4C[C@@H](O)[C@@H](O)C[C@]4(C)[C@H]3[C@H](O)C[C@]12C
2. C[C@H]([C@H](O)CCC(C)(C)O)[C@H]1CC[C@@]2(O)C3=CC(=O)[C@@H]4C[C@@H](O)[C@@H](O)C[C@]4(C)[C@H]3CC[C@]12C
3. CC(=O)O[C@@H]1C[C@H]2C(=O)C=C3[C@H](CC[C@]4(C)[C@@H]([C@@](C)(O)[C@H](O)CCC(C)(C)O)CC[C@@]34O)[C@@]2(C)C[C@@H]1O

> 18.3
> 12.9
> 8

Provide reported selectivity ratio for each item, in the same order as listed.
1. CC(C)CC[C@@H](O)[C@](C)(O)[C@H]1CC[C@@]2(O)C3=CC(=O)[C@@H]4C[C@@H](O)[C@@H](O)C[C@]4(C)[C@H]3[C@H](O)C[C@]12C
2. CC(=O)OC(C)(C)CC[C@@H](O)[C@](C)(O)[C@H]1CC[C@@]2(O)C3=CC(=O)[C@@H]4C[C@@H](O)[C@@H](O)C[C@]4(C)[C@H]3CC[C@]12C

> 69.7
> 17.6

----------
method_summary: Cytotoxicity against human HuH7 cells assessed as reduction in cell viability after 72 hrs by MTS assay
Type: cell-based, Huh-7
test_readout: CC50 at 72 h

Please review the following examples before continuing.
C[C@H]([C@H](O)CCC(C)(C)O)[C@H]1CC[C@@]2(O)C3=CC(=O)[C@@H]4C[C@@H](O)[C@@H](O)C[C@]4(C)[C@H]3CC[C@]12C [ECDYSONE]    > 700 µM
CC(=O)OC(C)(C)CC[C@@H](O)[C@](C)(O)[C@H]1CC[C@@]2(O)C3=CC(=O)[C@@H]4C[C@@H](O)[C@@H](O)C[C@]4(C)[C@H]3CC[C@]12C    > 700 µM

Provide reported CC50 at 72 h for each item, in the same order as listed.
1. CC(C)CC[C@@H](O)[C@](C)(O)[C@H]1CC[C@@]2(O)C3=CC(=O)[C@@H]4C[C@@H](O)[C@@H](O)C[C@]4(C)[C@H]3[C@H](O)C[C@]12C
2. CC(=O)O[C@@H]1C[C@H]2C(=O)C=C3[C@H](CC[C@]4(C)[C@@H]([C@@](C)(O)[C@H](O)CCC(C)(C)O)CC[C@@]34O)[C@@]2(C)C[C@@H]1O
3. C=C(C[C@@H](O)[C@](C)(O)[C@H]1CC[C@@]2(O)C3=CC(=O)[C@@H]4C[C@@H](O)[C@@H](O)C[C@]4(C)[C@H]3CC[C@]12C)C(C)(C)O
4. C[C@@]1(O)[C@H](O)[C@@H](CO)O[C@H]1n1ccc(N)nc1=O

1: > 700 µM; 2: > 700 µM; 3: > 700 µM; 4: 94.8 µM

Provide reported CC50 at 72 h for each item, in the same order as listed.
1. C[C@H](O)[C@H]1CC[C@@]2(O)C3=CC(=O)[C@@H]4C[C@@H](O)[C@@H](O)C[C@]4(C)[C@H]3CC[C@]12C
2. CC(C)(O)CC[C@@H](O)[C@](C)(O)[C@H]1CC[C@@]2(O)C3=CC(=O)[C@@H]4C[C@@H](O)[C@@H](O)C[C@]4(C)[C@H]3[C@H](O)C[C@]12C [TURKESTERONE]

1. > 700 µM
2. > 700 µM
